Where these numbers come from: the NIST ThermoML archive (doi:10.1016/j.fluid.2013.08.029)

# test-conditions: 318.15 K; 101.33 kPa; Liquid; Sing-around technique in a fixed-path interferometer
readout-label: speed of sound (m/s)

What the record says about CCCCCn1cc[n+](C)c1.F[B-](F)(F)F [1-methyl-3-pentyl-imidazolium tetrafluoroborate] : speed of sound is 1493.1

Short answer for OCCO : speed of sound was 1607.3

CCCCCn1cc[n+](C)c1.[Br-] [1-pentyl-3-methylimidazolium bromide] has a reported speed of sound of 1550.2

Please fill in: speed of sound reported for CCCCn1cc[n+](C)c1C.F[B-](F)(F)F [1-butyl-2,3-dimethylimidazolium tetrafluoroborate] = 1593.9

###

# test-conditions: 288.15 K; 101.33 kPa; Liquid; Sing-around technique in a fixed-path interferometer
readout-label: speed of sound (m/s)

Entry CCCCn1cc[n+](C)c1C.F[B-](F)(F)F [1-butyl-2,3-dimethylimidazolium tetrafluoroborate] , speed of sound reported as 1668.6

Looking up CCCCCn1cc[n+](C)c1.F[B-](F)(F)F [1-methyl-3-pentyl-imidazolium tetrafluoroborate] , I found its speed of sound recorded as 1565.2

Looking up OCCO , I found its speed of sound recorded as 1677.5

Reported speed of sound of CCCCCn1cc[n+](C)c1.[Br-] [1-pentyl-3-methylimidazolium bromide] : 1678.6
